Each recorded value in this set is attributed to PubChem BioAssay AID1963867.

Tested on: KRAS-mutant PDC tumor spheroid with HUVEC/MSC, viability;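 also: spheroids exposed to agents for seven days before reading; 100% = DMSO vehicle wells so lower means fewer viable cells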
Assay: Anticancer human tumor 327498-153-R-J2-PDC patient-derived uterine carcinosarcoma cell line growth inhibition [KRAS2]
Conditions: second compound 0.316 µM; first compound 0.1 µM; stronger effect = lower value
Record form. Attribute: viability, T/C. Fill in for each entry.

For each of the compounds below, state viability, T/C.
1. CC1(C)CCC(CN2CCN(c3ccc(C(=O)NS(=O)(=O)c4ccc(NCC5CCOCC5)c([N+](=O)[O-])c4)c(Oc4cnc5[nH]ccc5c4)c3)CC2)=C(c2ccc(Cl)cc2)C1 + C=CC(=O)N1CCN(c2nc(OCC3CCCN3C)nc3c2CCN(c2cccc4cccc(C)c24)C3)CC1CC#N
2. CC(=O)OC12COC1CC(O)C1(C)C(=O)C(O)C3=C(C)C(OC(=O)C(O)C(NC(=O)OC(C)(C)C)c4ccccc4)CC(O)(C(OC(=O)c4ccccc4)C21)C3(C)C (stereo not given) + CC1OCC2(CCN(c3cnc(Sc4ccnc(N)c4Cl)c(N)n3)CC2)C1N
3. CC1OCC2(CCN(c3cnc(Sc4ccnc(N)c4Cl)c(N)n3)CC2)C1N (stereo not given) + CNCc1ccccc1-c1csc(C(C)Nc2nc(C)nc3cc(OC)c(OC)cc23)c1
4. CCNC(=O)CC1N=C(c2ccc(Cl)cc2)c2cc(OC)ccc2-n2c(C)nnc21 (stereo not given) + COc1cc2nc(C)nc(NC(C)c3cc(N)cc(C(F)(F)F)c3)c2cc1OC1CCOC1
5. COc1cc(Nc2ncc3c(n2)-c2ccc(Cl)cc2C(c2c(F)cccc2OC)=NC3)ccc1C(=O)O + COc1cc2nc(C)nc(NC(C)c3cc(N)cc(C(F)(F)F)c3)c2cc1OC1CCOC1
6. COc1cc2nccc(Oc3ccc(NC(=O)C4(C(=O)Nc5ccc(F)cc5)CC4)cc3)c2cc1OC + CNCc1ccccc1-c1csc(C(C)Nc2nc(C)nc3cc(OC)c(OC)cc23)c1

49%
5.16%
51.8%
69.1%
11.8%
72.5%

For each of the compounds below, state viability, T/C.
1. COc1cc(Nc2ncc3c(n2)-c2ccc(Cl)cc2C(c2c(F)cccc2OC)=NC3)ccc1C(=O)O + CNCc1ccccc1-c1csc(C(C)Nc2nc(C)nc3cc(OC)c(OC)cc23)c1
2. O=C(c1cc(Cc2n[nH]c(=O)c3ccccc23)ccc1F)N1CCN(C(=O)C2CC2)CC1 + COc1cc2nc(C)nc(NC(C)c3cc(N)cc(C(F)(F)F)c3)c2cc1OC1CCOC1

1. 11.1%
2. 79.2%

For each of the compounds below, state viability, T/C.
1. COc1cc2nccc(Oc3ccc(NC(=O)C4(C(=O)Nc5ccc(F)cc5)CC4)cc3)c2cc1OC + C=CC(=O)N1CCN(c2nc(=O)n(-c3c(C)ccnc3C(C)C)c3nc(-c4c(O)cccc4F)c(F)cc23)C(C)C1
2. Cn1ncnc1[C@H]1c2n[nH]c(=O)c3cc(F)cc(c23)N[C@@H]1c1ccc(F)cc1 + C=CC(=O)N1CCN(c2nc(=O)n(-c3c(C)ccnc3C(C)C)c3nc(-c4c(O)cccc4F)c(F)cc23)C(C)C1
3. CCN1CCN(Cc2ccc(Nc3ncc(F)c(-c4cc(F)c5nc(C)n(C(C)C)c5c4)n3)nc2)CC1 + CC1OCC2(CCN(c3cnc(Sc4ccnc(N)c4Cl)c(N)n3)CC2)C1N
4. CC1COCCN1c1cc(-c2ccnn2C)c2ccnc(-c3ccn[nH]3)c2n1 (stereo not given) + C=CC(=O)N1CCN(c2nc(=O)n(-c3c(C)ccnc3C(C)C)c3nc(-c4c(O)cccc4F)c(F)cc23)C(C)C1
5. CN(C)C/C=C/C(=O)Nc1cc2c(Nc3ccc(F)c(Cl)c3)ncnc2cc1O[C@H]1CCOC1 + CNCc1ccccc1-c1csc(C(C)Nc2nc(C)nc3cc(OC)c(OC)cc23)c1
6. CCNC(=O)CC1N=C(c2ccc(Cl)cc2)c2cc(OC)ccc2-n2c(C)nnc21 (stereo not given) + C=CC(=O)N1CCN(c2nc(=O)n(-c3c(C)ccnc3C(C)C)c3nc(-c4c(O)cccc4F)c(F)cc23)C(C)C1

59.5%
15.4%
29.2%
9%
64%
50.7%
